// reported TGI per item
# System: SW-620 colon
# protocolNotes: NCI tumour cell line growth inhibition, 48 h

[in] # lookup: TGI of CCCC(CCC)NCC(O)c1cc(-c2ccc(C(F)(F)F)cc2)nc(C(F)(F)F)c1 (stereo unspecified)
[out] 3.05 µM

[in] Check `CC(C)=C[C@H]1CCC2(OCCO2)[C@]1(C)CO` too.
[out] > 100 µM

[in] Now the compound `Cc1ccc(NC(=O)c2cccc(C(C)(C)C#N)c2)cc1Nc1ccc2ncn(C)c(=O)c2c1`
[out] > 100 µM

[in] Input CC(=O)OC1C(Oc2c(C)cc3c(c2O)[C@@H](C)CC[C@@H]3[C@@H](C)CCC=C(C)C)OCC(O)C1O (stereo partly specified)
[out] 33.8 µM

[in] Next: c1ccc(C2N3CCCCC3[C@@H]3c4[nH]c5ccccc5c4CCN23)nc1 (stereo partly specified)
[out] > 100 µM

[in] Entry to check: CCOC(=O)c1ccc(N[C@@H]2c3cc4c(cc3C(c3cc(OC)c(O)c(OC)c3)[C@H]3C(=O)OCC32)OCO4)cc1O (stereo partly specified)
[out] > 48.2 µM

[in] Entry `Nc1ccccc1/C(O)=C1/CCOC1=O` please
[out] > 100 µM
